Record form. Attribute: Proxy for plastic degradation. Fill in for each entry.
Substrate: gfPET
Assay: Proxy for plastic degradation [Released monomer concentration (HPLC/LC-MS) (TPA+MHET+BHET)]
Details: 85 °C
One number for each entry, in mmol/h.

Consider the reported Proxy for plastic degradation for these proteins:
>>> assay_result("unnamed (protein) MENPYERGPDPTESSIEAVRGPFAVAQTTVSRLQADGFGGGTIYYPTDTSQGTFGAVAISPGFTAGQESIAWLGPRIASQGFVVITIDTITRLDQPDSRGRQLQAALDHLRTNSVVRNRIDPNRMAVMGHSMGGGGALSAAANNTSLEAAIPLQGWHTRKNWSSVRTPTLVVGAQLDTIAPVSSHSEAFYNSLPSDLDKAYMELRGASHFVSNTPDTTTAKYSIAWLKRFVDNDLRYEQFLCPAPDDFAISEYRATCPF")
0.38
>>> assay_result("unnamed (protein) MANPYERGPAPTTSSIEASRGPFAIASVTVSRSSVSGFGGGTIYYPRDTSEGTFGAVAIAPGFTADEGSMAWYGPRIASQGFVVFTIDTITRLDQPDSRGRQLLAALDYLTQRSSVRSRIDSSRLAVMGHSMGGGGSLEASVSRPSLKAAIPLTPWNLKKNWRDVRVPTLIVGAESDSIASVRTHAEPFYESIPSTTNKAYLELNNATHFAPNISNTTIAKYSISWLKRFVDNDTRYEQFLCPPPRPDRDIEEYRSTCPH")
0.05
>>> assay_result("unnamed (protein) MANPYERGPNPTDALLEARSGPFSVSEENVSRLSASGFGGGTIYYPRENNTYGAVAISPGYTGTEASIAWLGERIASHGFVVITIDTITTLDQPDSRAEQLNAALNHMINRASSTVRSRIDSSRLAVMGHSMGGGGSLRLASQRPDLKAAIPLTPWHLNKNWSSVTVPTLIIGADLDTIAPVATHAKPFYNSLPSSISKAYLELDGATHFAPNIPNKIIGKYSVAWLKRFVDNDTRYTQFLCPGPRDGLFGEVEEYRSTCPF")
0

Let's switch to this protein now.
Q: Entry unnamed (protein) MANPYERGPDPTVQSIEAVRGPFSVSETNVSRLVVTGFGGGTIYYPRDTSQGTFGAVAIAPGFTASEGSMAWYGPRIASQGFVVFTIDTLTRLDQPDSRGRQLLAALDYLTQRSSVRSRIDSSRLAVMGHSMGGGGSLEASESRPSLKASIPLTPWNLKKNWRNNRVPTLIVGAENDSIASVRTHAEPFYESIPSTTNKAYLELNNATHFAPNISNTTIAKYSISWLKRFVDNDTRYEQFLCPPPRPDRDIEEYRCTCPY has what Proxy for plastic degradation?
Ans: 0.05
